Data provenance is paper PMC8048568.

# targetOrTestSystem: σ1 receptor (Cavia porcellus, UniProt Q60492)
# Sequence (Q60492 whole entry): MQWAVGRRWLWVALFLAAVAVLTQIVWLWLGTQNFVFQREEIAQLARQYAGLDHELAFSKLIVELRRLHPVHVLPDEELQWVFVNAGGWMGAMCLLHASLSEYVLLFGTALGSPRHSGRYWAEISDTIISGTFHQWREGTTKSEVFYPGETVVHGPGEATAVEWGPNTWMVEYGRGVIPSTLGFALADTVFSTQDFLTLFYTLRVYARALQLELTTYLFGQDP
# procedureSummary: σ1 receptor competitive radioligand binding assay with [3H]-(+)-pentazocine
# experimentalParameters: K i [nM]±SEM σ1, [3H]-(+)-pentazocine, guinea pig brain homogenate; mean of 3 experiments
readoutKind: Ki (nM)
# value in nM; strip the unit string

Look over these answered cases.
[
  {
    "compound": "COc1cc2c(cc1OC)CN(C(=O)CNC1CCC3(CC1)OC(OC)Cc1ccccc13)CC2 (stereo not drawn) [cis‐22]",
    "Ki [nM]": 740
  },
  {
    "compound": "COc1cc2c(cc1OC)CN(CCNC1CCC3(CC1)OC(OC)Cc1ccccc13)CC2 (stereo not drawn) [cis‐31]",
    "Ki [nM]": 251
  }
]

# evaluate next
Return the recorded Ki value; entry: COc1cc2c(cc1OC)CN(CCN1CCC3(CC1)OC(OC)Cc1ccccc13)CC2 (stereo not drawn) [Compound 30]
608

* * *

# targetOrTestSystem: σ2 receptor (Rattus norvegicus, UniProt Q5U3Y7)
# Sequence (Q5U3Y7 whole entry): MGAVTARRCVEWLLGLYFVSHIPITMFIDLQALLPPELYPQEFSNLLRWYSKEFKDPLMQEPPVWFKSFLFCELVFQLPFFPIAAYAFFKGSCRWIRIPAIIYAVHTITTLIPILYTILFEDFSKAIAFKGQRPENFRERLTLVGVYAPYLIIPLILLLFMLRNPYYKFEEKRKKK
# procedureSummary: σ2 receptor competitive radioligand binding assay with [3H]DTG, σ1 masked with (+)-pentazocine
# experimentalParameters: read-out: inhibition of the radioligand, σ2, 1 μM of the test compound; [3H]DTG, rat liver
readoutKind: inhibition at 1 µM (%)
# value in %; strip the unit string

Look over these answered cases.
[
  {
    "compound": "COc1cc2c(cc1OC)CN(C(=O)CNC1CCC3(CC1)OC(OC)Cc1ccccc13)CC2 (stereo not drawn) [cis‐22]",
    "inhibition at 1 µM (%)": 11
  },
  {
    "compound": "COc1cc2c(cc1OC)CN(CC(=O)NC1CCC3(CC1)OC(OC)c1ccccc13)CC2 (stereo not drawn) [cis‐29]",
    "inhibition at 1 µM (%)": 0
  },
  {
    "compound": "COc1cc2c(cc1OC)CN(CC(=O)NC1CCC3(CC1)OC(OC)Cc1ccccc13)CC2 (stereo not drawn) [trans‐26]",
    "inhibition at 1 µM (%)": 4
  },
  {
    "compound": "COc1cc2c(cc1OC)CN(C(=O)CN1CCC3(CC1)OC(OC)Cc1ccccc13)CC2 (centres unmarked) [Compound 21]",
    "inhibition at 1 µM (%)": 19
  }
]

# evaluate next
Return the recorded inhibition at 1 µM value; entry: COc1cc2c(cc1OC)CN(C(=O)CN1CCC3(CC1)OC(OC)c1ccccc13)CC2 (centres unmarked) [Compound 23]
0

* * *

# targetOrTestSystem: σ1 receptor (Cavia porcellus, UniProt Q60492)
# procedureSummary: σ1 receptor competitive radioligand binding assay with [3H]-(+)-pentazocine
# experimentalParameters: K i [nM]±SEM σ1, [3H]-(+)-pentazocine, guinea pig brain homogenate; mean of 3 experiments
readoutKind: Ki
Lab note: write values as number then unit, every time.

[
  {
    "compound": "COc1cc2c(cc1OC)CN(CC(=O)NC1CCC3(CC1)OC(OC)Cc1ccccc13)CC2 (stereo not drawn) [cis‐26]",
    "readoutKind": "Ki",
    "result": "1000 nM"
  }
]

Return the recorded Ki value; entry: COc1cc2c(cc1OC)CN(CC(=O)NC1CCC3(CC1)OC(OC)c1ccccc13)CC2 (stereo not drawn) [trans‐29]
1300 nM

Return the recorded Ki value; entry: COc1cc2c(cc1OC)CN(CCCC(=O)NC1CCC3(CC1)OC(OC)Cc1ccccc13)CC2 (stereo not drawn) [cis‐27]
712 nM

Return the recorded Ki value; entry: COc1cc2c(cc1OC)CN(CC(=O)NC1CCC3(CC1)OC(OC)c1ccccc13)CC2 (stereo not drawn) [cis‐29]
129 nM

* * *

# targetOrTestSystem: σ2 receptor (Rattus norvegicus, UniProt Q5U3Y7)
# procedureSummary: σ2 receptor competitive radioligand binding assay with [3H]DTG, σ1 masked with (+)-pentazocine
# experimentalParameters: K i [nM]±SEM σ2, [3H]DTG, rat liver homogenate; mean of 3 experiments
readoutKind: Ki (nM)
# value in nM; strip the unit string

Look over these answered cases.
[
  {
    "compound": "COc1cc2c(cc1OC)CN(CC(=O)N1CCC3(CC1)OC(OC)c1ccccc13)CC2 (centres unmarked) [Compound 28]",
    "endpointUnit": "nM",
    "Ki": 3400
  },
  {
    "compound": "COc1cc2c(cc1OC)CN(CCCC(=O)NC1CCC3(CC1)OC(OC)Cc1ccccc13)CC2 (stereo not drawn) [cis‐27]",
    "endpointUnit": "nM",
    "Ki": 2100
  },
  {
    "compound": "COc1cc2c(cc1OC)CN(CCNC1CCC3(CC1)OC(OC)Cc1ccccc13)CC2 (stereo not drawn) [trans‐31]",
    "endpointUnit": "nM",
    "Ki": 499
  },
  {
    "compound": "COc1cc2c(cc1OC)CN(CC(=O)N1CCC3(CC1)OC(OC)Cc1ccccc13)CC2 (centres unmarked) [Compound 25]",
    "endpointUnit": "nM",
    "Ki": 534
  },
  {
    "compound": "COc1cc2c(cc1OC)CN(CCNC1CCC3(CC1)OC(OC)Cc1ccccc13)CC2 (stereo not drawn) [cis‐31]",
    "endpointUnit": "nM",
    "Ki": 200
  },
  {
    "compound": "COc1cc2c(cc1OC)CN(CC(=O)NC1CCC3(CC1)OC(OC)c1ccccc13)CC2 (stereo not drawn) [trans‐29]",
    "endpointUnit": "nM",
    "Ki": 1900
  },
  {
    "compound": "COc1cc2c(cc1OC)CN(CC(=O)NC1CCC3(CC1)OC(OC)Cc1ccccc13)CC2 (stereo not drawn) [cis‐26]",
    "endpointUnit": "nM",
    "Ki": 371
  }
]

Return the recorded Ki value; entry: COc1cc2c(cc1OC)CN(CCN1CCC3(CC1)OC(OC)Cc1ccccc13)CC2 (centres unmarked) [Compound 30]
348

* * *

# targetOrTestSystem: σ1 receptor (Cavia porcellus)
# procedureSummary: σ1 receptor competitive radioligand binding assay with [3H]-(+)-pentazocine
# experimentalParameters: read-out: inhibition of the radioligand, σ1
Entries and their inhibition at 1 µM
# value in %; strip the unit string

Look over these answered cases.
[
  {
    "compound": "COc1cc2c(cc1OC)CN(CC(=O)NC1CCC3(CC1)OC(OC)Cc1ccccc13)CC2 (stereo not drawn) [trans‐26]",
    "endpointUnit": "%",
    "inhibition at 1 µM": 7
  },
  {
    "compound": "COc1cc2c(cc1OC)CN(C(=O)CN1CCC3(CC1)OC(OC)c1ccccc13)CC2 (stereo not shown)",
    "endpointUnit": "%",
    "inhibition at 1 µM": 0
  },
  {
    "compound": "COc1cc2c(cc1OC)CN(CC(=O)N1CCC3(CC1)OC(OC)c1ccccc13)CC2 (stereo not shown)",
    "endpointUnit": "%",
    "inhibition at 1 µM": 19
  }
]

Return the recorded inhibition at 1 µM value; entry: COc1cc2c(cc1OC)CN(C(=O)CNC1CCC3(CC1)OC(OC)c1ccccc13)CC2 (stereo not drawn) [trans‐24]
15

* * *

# targetOrTestSystem: σ1 receptor (Cavia porcellus)
# procedureSummary: σ1 receptor competitive radioligand binding assay with [3H]-(+)-pentazocine
# experimentalParameters: K i [nM]±SEM σ1, [3H]-(+)-pentazocine, guinea pig brain homogenate; mean of 3 experiments
readoutKind: Ki (nM)
# value in nM; strip the unit string

Look over these answered cases.
[
  {
    "molecule": "COc1cc2c(cc1OC)CN(CC(=O)N1CCC3(CC1)OC(OC)Cc1ccccc13)CC2 (stereo not shown)",
    "Ki / nM": 518
  },
  {
    "molecule": "COc1cc2c(cc1OC)CN(C(=O)CN1CCC3(CC1)OC(OC)Cc1ccccc13)CC2 (stereo not shown)",
    "Ki / nM": 319
  },
  {
    "molecule": "COc1cc2c(cc1OC)CN(CCNC1CCC3(CC1)OC(OC)Cc1ccccc13)CC2 (stereo not drawn) [trans‐31]",
    "Ki / nM": 1400
  }
]

Return the recorded Ki value; entry: COc1cc2c(cc1OC)CN(C(=O)CNC1CCC3(CC1)OC(OC)c1ccccc13)CC2 (stereo not drawn) [cis‐24]
1600
